# TARGET: T1, nebulin SH3 domain (UniProt P20929 8466-8525)
# T1 sequence (looked up): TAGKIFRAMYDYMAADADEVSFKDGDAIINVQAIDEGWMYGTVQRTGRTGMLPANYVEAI
# TEST NAME: ITC
pKd: −log10 of the molar value.
ATTRIBUTE MEASURED: pKd

[[record]]
binder = "PPPTLPKPKLPKH [synthetic 13-mer XIRP2 peptide PPPTLPKPKLPKH]"
attribute_measured = "pKd"
assay_value = 5.03

